experiment: qHTS assay to identify small molecule antagonists of the estrogen related receptor signaling pathway with the pleiotropic PPARgamma coactivator (PGC) from Tox21 10K library (AID 1224841); conditions: PGC/ERR reporter cell line, ONE-Glo luciferase, 18 h; series mostly up to 92.4 µM; further: actives are mostly falling curves and most rising ones were filed inactive; nearly all actives have a fitted effect of over 50% in size
Inconclusive results are not listed. Calls of active or inactive are those of the source. How the calls were made is not given here.
A correct response names exactly one class from 1.0 = active, 0.0 = inactive

CC1=CC(=O)CC(C)(C)C1	0.0
CC(CN1c2ccccc2Sc2ccccc21)N(C)C (stereo unspecified)	0.0

// outcome(item) with item = C=CC(C)(C)C
0.0

Call for entry O=C(O)Cc1c[nH]c2ccccc12 :
0.0
